The values you see were collected from patent WO2016116777A1.

Test system: platelet collagen receptor glycoprotein VI (GPVI)
Assay: GPVI platelet aggregation
Type: cell-based, human
Details: Homo sapiens, Platelet
PROPERTY: IC50 (nM)
// note: answer is a bare numeric in nM

Request: Using the record for C=CC(=O)N1CCC[C@@H](n2nc(-c3ccc(Oc4ccccc4)cc3)c3c(N)ncnc32)C1 , state its measured IC50.
Response: 130
